Tested on: MALME-3M melanoma
Test: NCI tumour cell line growth inhibition, 48 h
Where a SMILES comes first, the peptide text is derived from it. [ ]: non-standard residue; d: D form. The star is where a group is joined. dTle = CC(C)(C)[C@@H](N)C(=O)O; 4Abz = Nc1ccc(C(=O)O)cc1; NHOH = ON*
Reported GI50 values are given for each entry in this list.

Examples with answers:
CC1(C)NCCC[C@]2(C)[C@H]3CC[C@@H]4[C@H]5[C@H](C(=O)/C=C/c6ccccn6)CC[C@]5(CO)CC[C@@]4(C)[C@]3(C)CC[C@@H]12	1.77 µM
C[C@@H](NC(=O)[C@H](NC(=O)[C@@H]1CCCN1C(=O)CNC(=O)c1ccc(N)cc1)C(C)(C)C)C(=O)NO (H-[4Abz]GP[dTle][dA]-{NHOH})	> 100 µM
CCn1c(-c2nonc2N)nc2c(C#CC(C)(C)O)ncc(OC[C@H]3CCCNC3)c21	13.4 µM

Okay, now this compound:
Param item = Oc1ccc(C2c3ccccc3Oc3ccccc32)c2cccnc12 ; retrieve measured GI50. 2.83 µM
